# assay.system: Protein cereblon/Cyclin-dependent kinase 9 (Homo sapiens, UniProt P50750+Q96SW2)
# Sequence (P50750 whole entry, looked up): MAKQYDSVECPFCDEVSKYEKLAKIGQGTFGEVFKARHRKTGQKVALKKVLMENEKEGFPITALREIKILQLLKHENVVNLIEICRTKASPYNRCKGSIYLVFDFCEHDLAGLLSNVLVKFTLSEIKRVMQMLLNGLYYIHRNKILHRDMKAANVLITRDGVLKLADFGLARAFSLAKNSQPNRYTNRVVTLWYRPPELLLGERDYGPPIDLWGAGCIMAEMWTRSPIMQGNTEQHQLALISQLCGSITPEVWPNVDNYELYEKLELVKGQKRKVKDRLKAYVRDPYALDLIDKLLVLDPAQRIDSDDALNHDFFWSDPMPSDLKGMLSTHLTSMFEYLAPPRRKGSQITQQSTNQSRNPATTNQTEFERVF
# Sequence (Q96SW2 whole entry, looked up): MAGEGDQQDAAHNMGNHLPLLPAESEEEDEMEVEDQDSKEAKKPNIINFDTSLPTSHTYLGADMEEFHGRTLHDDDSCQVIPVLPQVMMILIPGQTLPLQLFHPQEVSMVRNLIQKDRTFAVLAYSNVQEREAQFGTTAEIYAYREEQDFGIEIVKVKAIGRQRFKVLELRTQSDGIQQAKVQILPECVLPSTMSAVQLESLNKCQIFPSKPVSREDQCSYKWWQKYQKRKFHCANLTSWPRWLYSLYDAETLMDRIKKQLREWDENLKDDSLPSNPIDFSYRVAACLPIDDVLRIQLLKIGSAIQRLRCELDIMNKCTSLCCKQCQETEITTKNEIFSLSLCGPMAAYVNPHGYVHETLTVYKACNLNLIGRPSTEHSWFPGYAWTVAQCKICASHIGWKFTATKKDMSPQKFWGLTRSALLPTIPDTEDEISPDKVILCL
# method: PROTAC activity at CRBN/CDK9 in human NCI-H69 cells assessed as induction of CDK9 degradation at 10 nM by Western blot analysis relative to control
# Assay type: cell-based
Everything with Activity lower than 40% is false; everything else, including exactly 40%, is true.

Record excerpt, results attached:
INSERT INTO assay_data (compound, group_label) VALUES
  ('O=C1CCC(N2C(=O)c3cccc(NCCCCCC(=O)N4CCC(NC(=O)c5n[nH]cc5NC(=O)c5c(Cl)cccc5Cl)CC4)c3C2=O)C(=O)N1 (stereo unspecified)', 'false'),
  ('O=C1CCC(N2C(=O)c3ccc(N4CC5CN(CC(=O)N6CCC(NC(=O)c7n[nH]cc7NC(=O)c7c(Cl)cccc7Cl)CC6)CC5C4)cc3C2=O)C(=O)N1 (stereo unspecified)', 'true'),
  ('O=C1CCC(N2C(=O)c3ccc(N4CCN(CC5CCN(CC(=O)N6CCC(NC(=O)c7n[nH]cc7NC(=O)c7c(Cl)cccc7Cl)CC6)CC5)CC4)cc3C2=O)C(=O)N1 (stereo unspecified)', 'true');

## Task Has O=C1CCC(N2C(=O)c3cccc(NCCCCCN4CCC(NC(=O)c5n[nH]cc5NC(=O)c5c(Cl)cccc5Cl)CC4)c3C2=O)C(=O)N1 (stereo unspecified) a recorded Activity greater than or equal to 40%?
## Result false

## Task Has O=C1CCC(N2C(=O)c3ccc(N4CCN(CC5CCN(C(=O)CN6CCC(NC(=O)c7n[nH]cc7NC(=O)c7c(Cl)cccc7Cl)CC6)CC5)CC4)cc3C2=O)C(=O)N1 (stereo unspecified) a recorded Activity greater than or equal to 40%?
## Result true

----------
# assay.system: Protein cereblon/Cyclin-dependent kinase 9 (Homo sapiens, UniProt P50750+Q96SW2)
# method: PROTAC activity at CRBN/CDK9 in human NCI-H446 cells assessed as induction of CDK9 degradation at 10 nM by Western blot analysis relative to control
# Type: cell-based
So basically: is Activity under 30%? Then 1 (yes). Not under? Then 0 (no).

Record excerpt, results attached:
INSERT INTO results (compound, assay_system, group_label) VALUES
  ('O=C1CCC(Nc2ccc(N3CCN(CC4CCN(CC(=O)N5CCC(NC(=O)c6n[nH]cc6NC(=O)c6c(Cl)cccc6Cl)CC5)CC4)CC3)cc2)C(=O)N1 (configuration not stated)', 'Protein cereblon/Cyclin-dependent kinase 9 (Homo sapiens, UniProt P50750+Q96SW2)', '0 (no)'),
  ('O=C1CCC(N2C(=O)c3ccc(N4CCN(CC5CCN(C(=O)CN6CCC(NC(=O)c7n[nH]cc7NC(=O)c7c(Cl)cccc7Cl)CC6)CC5)CC4)cc3C2=O)C(=O)N1 (configuration not stated)', 'Protein cereblon/Cyclin-dependent kinase 9 (Homo sapiens, UniProt P50750+Q96SW2)', '0 (no)'),
  ('O=C1CCC(N2C(=O)c3ccc(N4CCN(CC5CCN(CC(=O)N6CCC(NC(=O)c7n[nH]cc7NC(=O)c7c(Cl)cccc7Cl)CC6)CC5)CC4)cc3C2=O)C(=O)N1 (configuration not stated)', 'Protein cereblon/Cyclin-dependent kinase 9 (Homo sapiens, UniProt P50750+Q96SW2)', '0 (no)'),
  ('O=C1CCC(Nc2cccc(N3CCN(CC4CCN(CC(=O)N5CCC(NC(=O)c6n[nH]cc6NC(=O)c6c(Cl)cccc6Cl)CC5)CC4)CC3)c2)C(=O)N1 (configuration not stated)', 'Protein cereblon/Cyclin-dependent kinase 9 (Homo sapiens, UniProt P50750+Q96SW2)', '0 (no)'),
  ('O=C1CCC(N2C(=O)c3ccc(N4CCC(OC(=O)CN5CCC(NC(=O)c6n[nH]cc6NC(=O)c6c(Cl)cccc6Cl)CC5)CC4)cc3C2=O)C(=O)N1 (configuration not stated)', 'Protein cereblon/Cyclin-dependent kinase 9 (Homo sapiens, UniProt P50750+Q96SW2)', '1 (yes)');

## Task Determine whether this compound shows Activity lower than 30% (ties excluded): O=C1CCC(N2C(=O)c3cccc(NCCCCCCC(=O)N4CCC(NC(=O)c5n[nH]cc5NC(=O)c5c(Cl)cccc5Cl)CC4)c3C2=O)C(=O)N1 (configuration not stated)
## Result 1 (yes)

## Task Determine whether this compound shows Activity lower than 30% (ties excluded): O=C1CCC(Nc2ccc(N3CCN(CC4CCN(CC(=O)N5CCC(NC(=O)c6n[nH]cc6NC(=O)c6c(Cl)cccc6Cl)CC5)CC4)CC3)c(F)c2)C(=O)N1 (configuration not stated)
## Result 0 (no)

## Task Determine whether this compound shows Activity lower than 30% (ties excluded): O=C1CCC(N2C(=O)c3ccc(N4CCN(CC(=O)N5CCC(CN6CCC(NC(=O)c7n[nH]cc7NC(=O)c7c(Cl)cccc7Cl)CC6)CC5)CC4)cc3C2=O)C(=O)N1 (configuration not stated)
## Result 0 (no)

## Task Determine whether this compound shows Activity lower than 30% (ties excluded): O=C1CCC(N2C(=O)c3cccc(NCCCCCCCN4CCC(NC(=O)c5n[nH]cc5NC(=O)c5c(Cl)cccc5Cl)CC4)c3C2=O)C(=O)N1 (configuration not stated)
## Result 1 (yes)

## Task Determine whether this compound shows Activity lower than 30% (ties excluded): O=C1CCC(N2C(=O)c3cccc(NCCCCCN4CCC(NC(=O)c5n[nH]cc5NC(=O)c5c(Cl)cccc5Cl)CC4)c3C2=O)C(=O)N1 (configuration not stated)
## Result 1 (yes)

## Task Determine whether this compound shows Activity lower than 30% (ties excluded): O=C1CCC(N2C(=O)c3ccc(N4CC5CN(CC(=O)N6CCC(NC(=O)c7n[nH]cc7NC(=O)c7c(Cl)cccc7Cl)CC6)CC5C4)cc3C2=O)C(=O)N1 (configuration not stated)
## Result 0 (no)

----------
# method: Metabolic stability in human liver microsomes assessed as parent compound remaining measured after 60 mins
# Format: ADME, Microsome
# assay.setup: read-out: Stability
So basically: is remaining at 1 h under 20%? Then YES. Not under? Then NO.

Record excerpt, results attached:
INSERT INTO results (molecule, group_label) VALUES
  ('O=C1CCC(N2C(=O)c3ccc(N4CCN(CC5CCN(CC(=O)N6CCC(NC(=O)c7n[nH]cc7NC(=O)c7c(Cl)cccc7Cl)CC6)CC5)CC4)cc3C2=O)C(=O)N1 (stereo not given)', 'NO'),
  ('O=C1CCC(Nc2cccc(N3CCN(CC4CCN(CC(=O)N5CCC(NC(=O)c6n[nH]cc6NC(=O)c6c(Cl)cccc6Cl)CC5)CC4)CC3)c2)C(=O)N1 (stereo not given)', 'NO'),
  ('O=C1CCC(N2C(=O)c3ccc(N4CCN(CC(=O)N5CCC(CN6CCC(NC(=O)c7n[nH]cc7NC(=O)c7c(Cl)cccc7Cl)CC6)CC5)CC4)cc3C2=O)C(=O)N1 (stereo not given)', 'YES'),
  ('O=C1CCC(N2C(=O)c3ccc(N4CCN(CC5CCN(C(=O)CN6CCC(NC(=O)c7n[nH]cc7NC(=O)c7c(Cl)cccc7Cl)CC6)CC5)CC4)cc3C2=O)C(=O)N1 (stereo not given)', 'YES');

## Task Determine whether this molecule shows remaining at 1 h lower than 20% (ties excluded): O=C1CCC(Nc2ccc(N3CCN(CC4CCN(CC(=O)N5CCC(NC(=O)c6n[nH]cc6NC(=O)c6c(Cl)cccc6Cl)CC5)CC4)CC3)cc2)C(=O)N1 (stereo not given)
## Result NO

----------
# method: Cmax in mouse at 25 mg/kg, po
# Format: ADME, organism-based
# assay.setup: in vivo
quantity.kind: Cmax (ng/mL)
State the answer as a number, implicitly in ng/mL.

## Task Reported Cmax for O=C1CCC(Nc2cccc(N3CCN(CC4CCN(CC(=O)N5CCC(NC(=O)c6n[nH]cc6NC(=O)c6c(Cl)cccc6Cl)CC5)CC4)CC3)c2)C(=O)N1 (stereo unspecified) : what is it?
## Result 277

----------
# method: AUC (0 to infinity) in Sprague-Dawley rat at 25 mg/kg, po measured after 12 hrs by LC-MS/MS analysis
# Assay type: ADME, organism-based
# assay.setup: in vivo
quantity.kind: AUC(0-inf)

## Task Reported AUC(0-inf) for O=C1CCC(Nc2cccc(N3CCN(CC4CCN(CC(=O)N5CCC(NC(=O)c6n[nH]cc6NC(=O)c6c(Cl)cccc6Cl)CC5)CC4)CC3)c2)C(=O)N1 (stereo unspecified) : what is it?
## Result 893 ng·h/mL

----------
# method: Metabolic stability in mouse liver microsomes assessed as half-life
# Assay type: ADME, Microsome
# assay.setup: liver microsomes
quantity.kind: half-life (h)
State the answer as a number, implicitly in h.

As a guide, the following entries are already answered.
INSERT INTO assay_data (molecule, endpoint_result) VALUES
  ('O=C1CCC(Nc2cccc(N3CCN(CC4CCN(CC(=O)N5CCC(NC(=O)c6n[nH]cc6NC(=O)c6c(Cl)cccc6Cl)CC5)CC4)CC3)c2)C(=O)N1 (stereo not given)', 2.42),
  ('O=C1CCC(Nc2ccc(N3CCN(CC4CCN(CC(=O)N5CCC(NC(=O)c6n[nH]cc6NC(=O)c6c(Cl)cccc6Cl)CC5)CC4)CC3)cc2)C(=O)N1 (stereo not given)', 2.27),
  ('O=C1CCC(N2C(=O)c3ccc(N4CCN(CC5CCN(CC(=O)N6CCC(NC(=O)c7n[nH]cc7NC(=O)c7c(Cl)cccc7Cl)CC6)CC5)CC4)cc3C2=O)C(=O)N1 (stereo not given)', 2.1),
  ('O=C1CCC(N2C(=O)c3ccc(N4CCN(CC(=O)N5CCC(CN6CCC(NC(=O)c7n[nH]cc7NC(=O)c7c(Cl)cccc7Cl)CC6)CC5)CC4)cc3C2=O)C(=O)N1 (stereo not given)', 1.43);

Next molecule, please.
## Task Reported half-life for O=C1CCC(N2C(=O)c3ccc(N4CCN(CC5CCN(C(=O)CN6CCC(NC(=O)c7n[nH]cc7NC(=O)c7c(Cl)cccc7Cl)CC6)CC5)CC4)cc3C2=O)C(=O)N1 (stereo not given) : what is it?
## Result 1.41
